Biological target: T1, recombinant human LAG3 expressed with a C-terminal mouse IgG2a mFc tag (human)
T1 construct: Called dimeric; also called hLAG3-mFc; hLAG3 dimer
T1 chain: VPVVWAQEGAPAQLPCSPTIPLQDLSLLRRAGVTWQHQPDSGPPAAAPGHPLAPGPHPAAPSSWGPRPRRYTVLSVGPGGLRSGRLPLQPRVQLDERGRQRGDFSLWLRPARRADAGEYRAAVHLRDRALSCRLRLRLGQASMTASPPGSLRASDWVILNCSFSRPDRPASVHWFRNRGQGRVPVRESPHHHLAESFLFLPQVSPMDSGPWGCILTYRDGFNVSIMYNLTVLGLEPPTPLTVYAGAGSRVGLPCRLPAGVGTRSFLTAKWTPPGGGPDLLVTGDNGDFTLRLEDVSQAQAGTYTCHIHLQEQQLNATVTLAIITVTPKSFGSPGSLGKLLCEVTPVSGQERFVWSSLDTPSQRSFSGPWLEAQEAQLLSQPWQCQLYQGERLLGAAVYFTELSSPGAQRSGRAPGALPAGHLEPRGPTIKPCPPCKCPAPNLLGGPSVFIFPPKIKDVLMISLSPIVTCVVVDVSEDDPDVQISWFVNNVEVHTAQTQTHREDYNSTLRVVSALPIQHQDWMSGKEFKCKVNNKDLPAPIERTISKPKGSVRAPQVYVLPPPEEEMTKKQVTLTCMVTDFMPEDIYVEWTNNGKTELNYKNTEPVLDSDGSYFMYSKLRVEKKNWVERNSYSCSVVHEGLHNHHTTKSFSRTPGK
Experiment: SPR, mAb captured, 37 C
koff by entry:
Just the number plus its unit, please.

Reference set, count: 5
binder="H4H15479P (antibody, human IgG4, V domains shown) VH: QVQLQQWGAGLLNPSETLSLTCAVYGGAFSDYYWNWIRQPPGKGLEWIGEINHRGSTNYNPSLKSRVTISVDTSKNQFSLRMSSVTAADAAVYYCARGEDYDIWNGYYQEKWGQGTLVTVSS VL: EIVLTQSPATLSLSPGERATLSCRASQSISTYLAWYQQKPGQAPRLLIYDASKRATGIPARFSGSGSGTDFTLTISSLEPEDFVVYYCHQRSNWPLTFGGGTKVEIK" metric_name=koff result="1e-05 s⁻¹"
binder="H4H15483P (antibody, human IgG4, V domains shown, H4H = human IgG4 Fc with S108P hinge mutation) VH: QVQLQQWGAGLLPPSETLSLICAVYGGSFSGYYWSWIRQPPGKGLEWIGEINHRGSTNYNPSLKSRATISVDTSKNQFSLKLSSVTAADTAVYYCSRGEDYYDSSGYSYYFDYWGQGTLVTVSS VL: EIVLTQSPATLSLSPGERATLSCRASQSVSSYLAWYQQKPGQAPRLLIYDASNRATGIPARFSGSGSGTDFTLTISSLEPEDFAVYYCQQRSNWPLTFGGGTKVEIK" metric_name=koff result="0.000298 s⁻¹"
binder="H4H14813N (antibody, human IgG4, V domains shown, H4H = human IgG4 Fc with S108P hinge mutation) VH: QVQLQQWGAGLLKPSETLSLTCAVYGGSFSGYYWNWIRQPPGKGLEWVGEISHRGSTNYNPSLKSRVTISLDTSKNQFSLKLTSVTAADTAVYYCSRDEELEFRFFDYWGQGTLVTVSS VL: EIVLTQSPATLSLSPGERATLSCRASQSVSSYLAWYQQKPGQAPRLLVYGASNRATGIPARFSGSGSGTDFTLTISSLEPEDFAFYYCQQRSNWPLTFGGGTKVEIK" metric_name=koff result="0.000117 s⁻¹"
binder="H4sH14813N (antibody, human IgG4 S228P, kappa, V domains shown, H4sH = modified human IgG4 Fc) VH: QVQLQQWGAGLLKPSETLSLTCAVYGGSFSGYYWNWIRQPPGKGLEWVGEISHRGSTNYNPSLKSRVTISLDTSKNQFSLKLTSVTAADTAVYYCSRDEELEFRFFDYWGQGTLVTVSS VL: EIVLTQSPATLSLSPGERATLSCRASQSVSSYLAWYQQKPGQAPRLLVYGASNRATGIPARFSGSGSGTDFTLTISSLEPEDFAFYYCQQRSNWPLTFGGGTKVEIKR" metric_name=koff result="0.000101 s⁻¹"
binder="H4sH15479P (antibody, V domains shown) VH: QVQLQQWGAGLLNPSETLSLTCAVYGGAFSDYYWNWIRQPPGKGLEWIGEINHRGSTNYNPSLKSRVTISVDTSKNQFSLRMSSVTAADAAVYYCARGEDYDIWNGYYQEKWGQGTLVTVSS VL: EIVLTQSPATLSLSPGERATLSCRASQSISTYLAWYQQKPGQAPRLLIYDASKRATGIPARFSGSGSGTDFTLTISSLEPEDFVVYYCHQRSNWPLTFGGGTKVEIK" metric_name=koff result="1e-05 s⁻¹"

Incoming: Quote koff reported for H4H17819P (antibody, human IgG4, V domains shown, H4H = human IgG4 Fc with S108P hinge mutation) VH: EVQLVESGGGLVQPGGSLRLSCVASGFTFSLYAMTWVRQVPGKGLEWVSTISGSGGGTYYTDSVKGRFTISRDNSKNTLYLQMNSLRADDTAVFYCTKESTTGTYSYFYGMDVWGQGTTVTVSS VL: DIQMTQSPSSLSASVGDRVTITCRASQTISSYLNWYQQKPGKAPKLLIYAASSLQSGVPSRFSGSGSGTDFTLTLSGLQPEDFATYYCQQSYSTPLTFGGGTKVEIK please.
Outgoing: 0.000527 s⁻¹

Incoming: Quote koff reported for H4H17823P (antibody, human IgG4, V domains shown, H4H = human IgG4 Fc with S108P hinge mutation) VH: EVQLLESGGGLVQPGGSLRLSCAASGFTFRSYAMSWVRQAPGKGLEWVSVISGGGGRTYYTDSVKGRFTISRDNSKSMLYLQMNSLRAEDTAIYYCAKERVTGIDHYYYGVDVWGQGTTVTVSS VL: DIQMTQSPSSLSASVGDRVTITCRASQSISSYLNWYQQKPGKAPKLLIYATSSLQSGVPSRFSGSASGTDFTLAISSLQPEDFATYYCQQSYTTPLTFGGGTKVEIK please.
Outgoing: 0.000585 s⁻¹

Cited source: patent US20170101472A1
